Attribution: ChEMBL document CHEMBL5500338

- TARGET UNDER TEST: Peroxisome proliferator-activated receptor gamma (Homo sapiens, UniProt P37231)
- Sequence (P37231 whole entry): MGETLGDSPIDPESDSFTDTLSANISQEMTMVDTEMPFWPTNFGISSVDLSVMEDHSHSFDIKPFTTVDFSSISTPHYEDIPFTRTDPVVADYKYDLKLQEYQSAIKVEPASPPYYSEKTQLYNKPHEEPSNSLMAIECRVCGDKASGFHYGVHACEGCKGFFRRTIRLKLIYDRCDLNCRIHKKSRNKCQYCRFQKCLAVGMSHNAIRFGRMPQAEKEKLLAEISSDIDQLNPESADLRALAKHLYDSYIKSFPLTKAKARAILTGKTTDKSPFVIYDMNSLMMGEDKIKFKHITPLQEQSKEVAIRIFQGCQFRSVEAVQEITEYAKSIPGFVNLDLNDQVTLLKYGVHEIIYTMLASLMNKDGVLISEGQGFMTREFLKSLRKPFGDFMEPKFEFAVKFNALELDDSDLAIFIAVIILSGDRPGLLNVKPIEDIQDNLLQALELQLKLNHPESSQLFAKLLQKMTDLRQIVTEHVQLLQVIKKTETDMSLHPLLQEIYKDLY
- MEASUREMENT DESCRIPTION: Agonist activity at human PPARgamma transfected in African green monkey COS-7 cells co-transfected with pGL4.35 and pBIND reporter gene plasmid assessed as receptor transactivation incubated for 16 hrs by luciferase reporter gene assay
Quick reference: EC50 of the listed items.

MOLECULE	EC50
Cc1cc(CN2CCN(c3ccc(C(F)(F)F)nc3)CC2)cc(C)c1OC(C)(C)C(=O)O	> 10 µM

Reported EC50 for Peroxisome proliferator-activated receptor gamma (Homo sapiens, UniProt P37231), given Cc1cc(CN2CCN(c3ccc(C(F)(F)F)cc3)CC2)ccc1OC(C)(C)C(=O)O ? > 10 µM

Reported EC50 for Peroxisome proliferator-activated receptor gamma (Homo sapiens, UniProt P37231), given CC(C)(Oc1ccc(CN2CCN(c3ccc(C(F)(F)F)cc3)CC2)cc1)C(=O)O ? > 10 µM

Reported EC50 for Peroxisome proliferator-activated receptor gamma (Homo sapiens, UniProt P37231), given Cc1cc(CN2CCN(c3ccc(F)cn3)CC2)cc(C)c1OC(C)(C)C(=O)O ? 7.2 µM

Reported EC50 for Peroxisome proliferator-activated receptor gamma (Homo sapiens, UniProt P37231), given Cc1cc(CN2CCN(Cc3ccc(C(F)(F)F)nc3)CC2)cc(C)c1OC(C)(C)C(=O)O ? > 10 µM

Reported EC50 for Peroxisome proliferator-activated receptor gamma (Homo sapiens, UniProt P37231), given O=C(O)CCCc1cc2cc(Cl)ccc2n1S(=O)(=O)c1ccc2ncsc2c1 ? 0.6 µM

Reported EC50 for Peroxisome proliferator-activated receptor gamma (Homo sapiens, UniProt P37231), given CC(C)(Oc1ccc(CCNC(=O)c2ccc(Cl)cc2)cc1)C(=O)O [BEZAFIBRATE] ? 13.2 µM

Reported EC50 for Peroxisome proliferator-activated receptor gamma (Homo sapiens, UniProt P37231), given Cc1c(CN2CCN(c3ccc(C(F)(F)F)cc3)CC2)ccc(OC(C)(C)C(=O)O)c1C ? > 10 µM
